// reported half-life for each item listed
# method.description: in vivo
# experimental.setup: rat
result.type: half-life (h)

smiles_string=CCn1nc(Cc2ccccc2)cc1C1CCN(C[C@H]2CN([C@@H](C(=O)O)C3CCC3)C[C@@H]2c2ccccc2)CC1 obs_value=1
smiles_string=CC[C@@H](C)[C@H](C(=O)O)N1C[C@H](CN2CCC(c3cc(Cc4ccccc4)nn3CC)CC2)[C@@H](c2cccc(F)c2)C1 obs_value=0.54
smiles_string=CCn1nc(Cc2ccccc2)cc1C1CCN(C[C@H]2CN([C@@H](C(=O)O)C(C)C)C[C@@H]2c2cccc(F)c2)CC1 obs_value=1.4

====

# method.description: Plasma clearance in dog (dosed at 0.5 mpk iv and 2.0 mpk orally)
# Assay type: ADME, organism-based, Canis lupus familiaris
# experimental.setup: 0.5 mg/kg, read-out: Clp
result.type: clearance (mL/min/kg)

smiles_string=CCn1nc(Cc2ccccc2)cc1C1CCN(C[C@H]2CN([C@@H](C(=O)O)C(C)C)C[C@@H]2c2cccc(F)c2)CC1 result_type=clearance obs_value=3.5
smiles_string=CCn1nc(Cc2ccccc2)cc1C1CCN(C[C@H]2CN([C@@H](C(=O)O)C(C)(C)C)C[C@@H]2c2cccc(F)c2)CC1 result_type=clearance obs_value=13

====

# method.description: Clearance rat (dosed at 0.5 mpk IV and 2.0 mpk po.)
# Format: ADME, organism-based
# experimental.setup: plasma, 0.5 mg/kg, read-out: Clp
// reported clearance for each item listed
result.type: clearance (mL/min/kg)

smiles_string=CCn1nc(Cc2ccccc2)cc1C1CCN(C[C@H]2CN([C@H](CC3CCC3)C(=O)O)C[C@@H]2c2cccc(F)c2)CC1 obs_value=46
smiles_string=CCn1nc(Cc2ccccc2)cc1C1CCN(C[C@H]2CN([C@@H](C(=O)O)C(C)C)C[C@@H]2c2ccccc2)CC1 obs_value=12.6
smiles_string=CCn1nc(Cc2ccccc2)cc1C1CCN(C[C@H]2CN([C@@H](C(=O)O)C3CCC3)C[C@@H]2c2ccccc2)CC1 obs_value=60
smiles_string=CCn1nc(Cc2ccccc2)cc1C1CCN(C[C@H]2CN([C@H](CC3CC3)C(=O)O)C[C@@H]2c2cccc(F)c2)CC1 obs_value=81

====

# method.description: Plasma clearance in monkey (dosed at 0.5 mpk iv and 2.0 mpk orally)
# Assay type: ADME, organism-based
# experimental.setup: cercopithecidae, 0.5 mg/kg, read-out: Clp
result.type: clearance (mL/min/kg)

smiles_string=CCn1nc(Cc2ccccc2)cc1C1CCN(C[C@H]2CN([C@@H](C(=O)O)C(C)C)C[C@@H]2c2cccc(F)c2)CC1 unit_abbreviation=mL/min/kg obs_value=20

====

// reported pIC50 for each item listed
# target.or.test.system: C-C chemokine receptor type 5 (Homo sapiens)
# Sequence (P51681 whole entry): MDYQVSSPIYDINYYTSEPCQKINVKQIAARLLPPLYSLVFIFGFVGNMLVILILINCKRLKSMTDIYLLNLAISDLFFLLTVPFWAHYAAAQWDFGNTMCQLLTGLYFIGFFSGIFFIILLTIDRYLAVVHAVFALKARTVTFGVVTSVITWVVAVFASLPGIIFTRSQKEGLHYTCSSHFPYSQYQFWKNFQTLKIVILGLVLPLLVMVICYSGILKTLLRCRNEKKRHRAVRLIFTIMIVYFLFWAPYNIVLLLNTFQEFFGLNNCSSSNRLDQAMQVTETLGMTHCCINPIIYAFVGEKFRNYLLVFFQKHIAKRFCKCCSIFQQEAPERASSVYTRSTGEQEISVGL
# method.description: Displacement of [125I]-MIP-1 alpha from human […] chemokine receptor 5 expressed in CHO cells
# Type: cell-based
pIC50: −log10 of the molar value.
result.type: pIC50

smiles_string=CCn1nc(Cc2ccccc2)cc1C1CCN(C[C@H]2CN([C@](C)(C(=O)O)C(C)C)C[C@@H]2c2cccc(F)c2)CC1 target_or_test_system="C-C chemokine receptor type 5 (Homo sapiens)" obs_value=8.26
smiles_string=CCC(CC)[C@H](C(=O)O)N1C[C@H](CN2CCC(c3cc(Cc4ccccc4)nn3CC)CC2)[C@@H](c2cccc(F)c2)C1 target_or_test_system="C-C chemokine receptor type 5 (Homo sapiens)" obs_value=9.05
smiles_string=CC[C@@H](C)[C@H](C(=O)O)N1C[C@H](CN2CCC(c3cc(Cc4ccccc4)nn3CC)CC2)[C@@H](c2cccc(F)c2)C1 target_or_test_system="C-C chemokine receptor type 5 (Homo sapiens)" obs_value=9.10
smiles_string=CCn1nc(Cc2ccccc2)cc1C1CCN(C[C@H]2CN([C@@H](C(=O)O)C(C)C)C[C@@H]2c2cccc(F)c2)CC1 target_or_test_system="C-C chemokine receptor type 5 (Homo sapiens)" obs_value=8.82
smiles_string=CCn1nc(Cc2ccccc2)cc1C1CCN(C[C@H]2CN([C@@H](C(=O)O)C(C)(C)C)C[C@@H]2c2cccc(F)c2)CC1 target_or_test_system="C-C chemokine receptor type 5 (Homo sapiens)" obs_value=9.10
smiles_string=CCn1nc(Cc2ccccc2)cc1C1CCN(C[C@H]2CN([C@H](CC3CCC3)C(=O)O)C[C@@H]2c2cccc(F)c2)CC1 target_or_test_system="C-C chemokine receptor type 5 (Homo sapiens)" obs_value=8.92
smiles_string=CCn1nc(Cc2ccccc2)cc1C1CCN(C[C@H]2CN([C@@](C)(C(=O)O)C(C)C)C[C@@H]2c2cccc(F)c2)CC1 target_or_test_system="C-C chemokine receptor type 5 (Homo sapiens)" obs_value=8.80
smiles_string=CCn1nc(Cc2ccccc2)cc1C1CCN(C[C@H]2CN([C@H](CC3CC3)C(=O)O)C[C@@H]2c2cccc(F)c2)CC1 target_or_test_system="C-C chemokine receptor type 5 (Homo sapiens)" obs_value=8.92
smiles_string=CCn1nc(Cc2ccccc2)cc1C1CCN(C[C@H]2CN([C@@H](C(=O)O)C3CCCCC3)C[C@@H]2c2cccc(F)c2)CC1 target_or_test_system="C-C chemokine receptor type 5 (Homo sapiens)" obs_value=8.80
smiles_string=CC[C@H](C)[C@H](C(=O)O)N1C[C@H](CN2CCC(c3cc(Cc4ccccc4)nn3CC)CC2)[C@@H](c2cccc(F)c2)C1 target_or_test_system="C-C chemokine receptor type 5 (Homo sapiens)" obs_value=9.05
smiles_string=CCn1nc(Cc2ccccc2)cc1C1CCN(C[C@H]2CN([C@@H](C(=O)O)C3CCC3)C[C@@H]2c2ccccc2)CC1 target_or_test_system="C-C chemokine receptor type 5 (Homo sapiens)" obs_value=8.80

Sourced from ChEMBL document CHEMBL1147445
